I'd be grateful if you could share measured koff for these entries.
- Study Target: MPXV M2 (monkeypox virus M2 protein), His-tagged, wild type (monkeypox virus (Clade I), UniProt Q8V554 18-220)
- Assay Text: BLI
Answer by giving the amount and then stating its unit.

Qu. Which value of koff has been reported for human B7.2 ectodomain fused to human Fc (Fc fusion) LKIQAYFNETADLPCQFANSQNQSLSELVVFWQDQENLVLNEVYLGKEKFDSVHSKYMGRTSFDSDSWTLRLHNLQIKDKGLYQCIIHHKKPTGMIRIHQMNSELSVLANFSQPEIVPISNITENVYINLTCSSIHGYPEPKKMSVLLRTKNSTIEYDGVMQKSQDNVTELYDVSISLSVSFPDVTSNMTIFCILETDKTRLLSSPFSIELED in the records?
Ans. 9.75e-06 s⁻¹

Qu. Entry human B7.1 ectodomain fused to human Fc (Fc fusion) VIHVTKEVKEVATLSCGHNVSVEELAQTRIYWQKEKKMVLTMMSGDMNIWPEYKNRTIFDITNNLSIVILALRPSDEGTYECVVLKYEKDAFKREHLAEVTLSVKADFPTPSISDFEIPTSNIRRIICSTSGGFPEPHLSWLENGEELNAINTTVSQDPETELYAVSSKLDFNMTTNHSFMCLIKYGHLRVNQTFNWNTT please
Ans. 2.91e-05 s⁻¹

Qu. Further, for mouse B7.1 ectodomain fused to human Fc (Fc fusion) VDEQLSKSVKDKVLLPCRYNSPHEDESEDRIYWQKHDKVVLSVIAGKLKVWPEYKNRTLYDNTTYSLIILGLVLSDRGTYSCVVQKKERGTYEVKHLALVKLSIKADFSTPNITESGNPSADTKRITCFASGGFPKPRFSWLENGRELPGINTTISQDPESELYTISSQLDFNTTRNHTIKCLIKYGDAHVSEDFTWEKPPEDPPDSK ?
Ans. 2.92e-05 s⁻¹

Qu. Likewise for mouse B7.2 ectodomain fused to human Fc (Fc fusion) VSVETQAYFNGTAYLPCPFTKAQNISLSELVVFWQDQQKLVLYEHYLGTEKLDSVNAKYLGRTSFDRNNWTLRLHNVQIKDMGSYDCFIQKKPPTGSIILQQTLTELSVIANFSEPEIKLAQNVTGNSGINLTCTSKQGHPKPKKMYFLITNSTNEYGDNMQISQDNVTELFSISNSLSLSFPDGVWHMTVVCVLETESMKISSKPLNFTQEFPSPQTYWKE ?
Ans. 0.689 s⁻¹

Source listed as paper PMC10457294.
